These measurements were taken from patent US20190031754A1.

Measurement target: T1, recombinant human twin strep-tagged ROR2 extracellular domain (human, UniProt Q01974 34-403)
T1 construct: extracellular domain; Made in HEK293T, Streptactin purified; also called Human ROR2-TwinStrep; human ROR2
Assay comment: ELISA, IgG titrated on coated twin-strep human ROR2 ECD; fit printed as IC50
Parameter measured: IC50 (µg/mL)
Just the number in µg/mL, nothing appended.

# Binder, Recorded number
measured = [
    ("ERR2-302 (mAb004) (antibody, human IgG1, V domains shown, Full-length chimeric rabbit/human IgG1, human IgH-gamma1 and IgL-lambda constant regions; C-terminal tags HC: LPETG-Strep, LC: G5SLPETG-Strep) VH: QKQLVESGGGLVKPGGSLTLTCTVSGFSLSSYAIGWVRQAPGNGLEWIGIINSYGSTYYASWAKSRSTITRNTNLNTVTLKMTSLTAADTATYFCARSPYGYVSAWGYHRLDLWGQGTLVTISS VL: SYELTQLPSVSVSLGQTARITCGGASIGSKVVHWYQQKPGLAPGLLIYDDDERPSGVPDRFSGSNSGDTATLTISGAQAGDEAEYYCQLWDGSDVVFGGGTQLTVTG", 0.0055),
]

Please look at the following binder next.
// recorded IC50 for XBR2-401 (mAb003) (antibody, human IgG1, V domains shown, Full-length chimeric rabbit/human IgG1 (kappa) with C-terminal tags HC: LPETG-Strep, LC: G5SLPETG-Strep) VH: QSVKESEGGLFKPTDTLTLTCTVSGFSLSSYGVTWVRQAPGSGLEWIGYINTAGNTYYASWAKSRSTITRNTNENTVTLKMTSLTAADTATYFCARDWTSLNIWGPGTLVTVSS VL: DPMLTQTPSSTSTAVGDTVTIKCQASQSISSDLSWYQQKPGQRPKLLIYQASTLASGVPSRFKGSGYGTEYTLTISGVQREDAAIYYCLGGYADASYRTAFGGGTKLEIK : 0.0419
